Test system: HUVEC
experiment.summary: cells
conditions: Homo sapiens, 24 h
Description: Cytotoxicity against HUVEC cells assessed as inhibition of cell proliferation in presence of VEGF measured after 24 hrs by CCK8 assay
Reported values of IC50 for individual entries
State just the number; it will be interpreted in µM.

* Cc1cccc(-n2cc(-c3ccc(/C=C4\C(=O)Nc5ccc(F)cc54)cc3)nn2)c1 | 9.88
* O=C1Nc2ccc(F)cc2C1=Cc1ccc(-c2cn(-c3ccccc3)nn2)cc1 | 13.7
* Cc1ccccc1-n1cc(-c2ccc(C=C3C(=O)Nc4ccc(F)cc43)cc2)nn1 | 8.63
* O=C1Nc2ccc(F)cc2C1=Cc1ccc(-c2cn(-c3ccc(Cl)cc3)nn2)cc1 | 19.6
* O=C1Nc2ccccc2/C1=C/c1ccc(-c2cn(-c3ccccc3)nn2)cc1 | 12.7

Exercise: Indicate the recorded IC50 value for this compound: Cc1ccccc1-n1cc(-c2ccc(/C=C3\C(=O)Nc4ccccc43)cc2)nn1
Solution: 14.7

###

Tested on: MKN-45
experiment.summary: cells
conditions: Homo sapiens, MKN-45, 24 h
Description: Antiproliferative activity against human MKN-45 cells assessed assessed as inhibition of VEGF-induced cell proliferation measured after 24 hrs by CCK8 assay
pIC50: −log10 of the molar value.
Threshold rule: pIC50 greater than or equal to 5 is Y; below that, N.

These recorded examples may help you get a feel for the data.
* N#Cc1ccc(-n2cc(-c3ccc(C=C4C(=O)Nc5ccccc54)cc3)nn2)cc1 | N
* O=C1Nc2ccccc2/C1=C/c1ccc(-c2cn(-c3cccc(Cl)c3)nn2)cc1 | N
* N#Cc1ccc(-n2cc(-c3ccc(C=C4C(=O)Nc5ccc(F)cc54)cc3)nn2)cc1 | N
* N#Cc1ccccc1-n1cc(-c2ccc(C=C3C(=O)Nc4ccc(F)cc43)cc2)nn1 | N
* Cc1ccc(-n2cc(-c3ccc(/C=C4\C(=O)Nc5ccccc54)cc3)nn2)cc1 | Y

Exercise: Say whether O=C1Nc2ccccc2/C1=C/c1ccc(-c2cn(-c3ccc(F)cc3)nn2)cc1 shows pIC50 of 5 or more.
Solution: N

###

Reported values of IC50 for individual entries
assay.target: Vascular endothelial growth factor receptor 2 (Homo sapiens)
Sequence (P35968 whole entry): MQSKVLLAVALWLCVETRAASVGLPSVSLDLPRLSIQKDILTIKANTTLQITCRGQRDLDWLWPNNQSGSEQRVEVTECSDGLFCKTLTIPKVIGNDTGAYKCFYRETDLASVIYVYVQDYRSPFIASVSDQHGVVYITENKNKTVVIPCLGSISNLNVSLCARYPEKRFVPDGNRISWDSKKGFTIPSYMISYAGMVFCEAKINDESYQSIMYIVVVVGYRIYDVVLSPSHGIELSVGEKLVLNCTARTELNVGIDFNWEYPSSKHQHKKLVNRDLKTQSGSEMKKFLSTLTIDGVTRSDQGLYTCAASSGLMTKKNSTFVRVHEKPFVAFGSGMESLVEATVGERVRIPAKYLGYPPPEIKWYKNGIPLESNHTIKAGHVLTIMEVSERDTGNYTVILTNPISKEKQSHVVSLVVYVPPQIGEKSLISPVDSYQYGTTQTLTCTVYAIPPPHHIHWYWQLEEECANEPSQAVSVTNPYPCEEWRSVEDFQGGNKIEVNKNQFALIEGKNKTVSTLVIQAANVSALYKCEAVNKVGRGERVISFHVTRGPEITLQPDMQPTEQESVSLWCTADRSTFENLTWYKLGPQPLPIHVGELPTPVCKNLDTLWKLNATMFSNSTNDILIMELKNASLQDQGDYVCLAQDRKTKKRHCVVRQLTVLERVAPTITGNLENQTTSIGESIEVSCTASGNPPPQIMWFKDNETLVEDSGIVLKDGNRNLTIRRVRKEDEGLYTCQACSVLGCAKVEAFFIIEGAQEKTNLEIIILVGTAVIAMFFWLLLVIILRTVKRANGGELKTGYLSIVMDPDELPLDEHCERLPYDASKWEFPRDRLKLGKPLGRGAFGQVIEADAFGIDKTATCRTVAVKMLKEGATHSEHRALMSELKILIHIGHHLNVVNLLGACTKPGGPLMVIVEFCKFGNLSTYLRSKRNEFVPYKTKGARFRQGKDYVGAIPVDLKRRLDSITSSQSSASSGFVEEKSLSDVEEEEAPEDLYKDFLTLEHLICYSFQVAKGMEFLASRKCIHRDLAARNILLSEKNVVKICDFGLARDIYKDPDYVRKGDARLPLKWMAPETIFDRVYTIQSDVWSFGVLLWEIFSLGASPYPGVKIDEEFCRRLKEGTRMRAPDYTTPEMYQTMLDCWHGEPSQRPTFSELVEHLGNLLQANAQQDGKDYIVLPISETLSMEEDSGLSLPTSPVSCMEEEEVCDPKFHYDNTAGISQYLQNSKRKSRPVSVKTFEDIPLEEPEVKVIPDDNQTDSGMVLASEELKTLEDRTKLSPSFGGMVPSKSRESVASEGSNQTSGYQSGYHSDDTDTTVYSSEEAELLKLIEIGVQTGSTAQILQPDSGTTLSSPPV
experiment.summary: Inhibition of recombinant human His-tagged VEGFR2 expressed in Baculovirus expression system using ADP-Glo as substrate measured after 30 mins in presence of ATP by ADP-Glo kinase assay
State just the number; it will be interpreted in nM.

* O=C1Nc2ccc(F)cc2C1=Cc1ccc(-c2cn(-c3ccc(Cl)cc3)nn2)cc1 | 170
* Cc1ccccc1-n1cc(-c2ccc(/C=C3\C(=O)Nc4ccccc43)cc2)nn1 | 111
* O=C1Nc2ccc(F)cc2/C1=C/c1ccc(-c2cn(-c3ccc(Cl)c(C(F)(F)F)c3)nn2)cc1 | 169
* N#Cc1cccc(-n2cc(-c3ccc(/C=C4\C(=O)Nc5ccc(F)cc54)cc3)nn2)c1 | 193
* O=C1Nc2ccc(F)cc2/C1=C/c1ccc(-c2cn(-c3ccc(F)cc3)nn2)cc1 | 192
* O=C1Nc2ccccc2/C1=C/c1ccc(-c2cn(-c3ccccc3F)nn2)cc1 | 115

Exercise: Indicate the recorded IC50 value for this compound: N#Cc1ccccc1-n1cc(-c2ccc(C=C3C(=O)Nc4ccc(F)cc43)cc2)nn1
Solution: 187

Exercise: Indicate the recorded IC50 value for this compound: O=C1Nc2ccc(F)cc2/C1=C/c1ccc(-c2cn(-c3ccccc3F)nn2)cc1
Solution: 140

Exercise: Indicate the recorded IC50 value for this compound: O=C1Nc2ccc(F)cc2/C1=C/c1ccc(-c2cn(-c3cccc(Cl)c3)nn2)cc1
Solution: 186

Exercise: Indicate the recorded IC50 value for this compound: O=C1Nc2ccccc2/C1=C/c1ccc(-c2cn(-c3ccc(Cl)cc3)nn2)cc1
Solution: 163

Exercise: Indicate the recorded IC50 value for this compound: O=C1Nc2ccc(F)cc2/C1=C/c1ccc(-c2cn(-c3ccccc3Cl)nn2)cc1
Solution: 120

Exercise: Indicate the recorded IC50 value for this compound: O=C1Nc2ccc(F)cc2/C1=C/c1ccc(-c2cn(-c3cccc(F)c3)nn2)cc1
Solution: 171

Exercise: Indicate the recorded IC50 value for this compound: N#Cc1ccc(-n2cc(-c3ccc(C=C4C(=O)Nc5ccccc54)cc3)nn2)cc1
Solution: 179

Exercise: Indicate the recorded IC50 value for this compound: O=C1Nc2ccccc2/C1=C/c1ccc(-c2cn(-c3ccc(Cl)c(C(F)(F)F)c3)nn2)cc1
Solution: 108

Exercise: Indicate the recorded IC50 value for this compound: N#Cc1ccccc1-n1cc(-c2ccc(/C=C3\C(=O)Nc4ccccc43)cc2)nn1
Solution: 169

Exercise: Indicate the recorded IC50 value for this compound: O=C1Nc2ccccc2/C1=C/c1ccc(-c2cn(-c3ccc(F)cc3)nn2)cc1
Solution: 198

Exercise: Indicate the recorded IC50 value for this compound: N#Cc1ccc(-n2cc(-c3ccc(C=C4C(=O)Nc5ccc(F)cc54)cc3)nn2)cc1
Solution: 190
